Provenance of the data: paper PMC6763467

I'd appreciate it if you could supply percent of parent values for the items below.
B1: E. coli MtlR fused with His6-tag (ecHisMtlR), wild type [E. coli] / E. coli histidine phosphocarrier protein HPr (dephosphorylated, untagged) [E. coli] (parent complex)
chain 1: MVDQAQDTLRPNNRLSDMQATMEQTQAFENRVLERLNAGKTVRSFLITAVELLTEAVNLLVLQVFRKDDYAVKYAVEPLLDGDGPLGDLSVRLKLIYGLGVINRQEYEDAELLMALREELNHDGNEYAFTDDEILGPFGELHCVAALPPPPQFEPADSSLYAMQIQRYQQAVRSTMVLSLTELISKISLKKAFQK
chain 2: not shown

variants of: B1; test: His-tag pull-down (Talon metal affinity chromatography), SDS-PAGE band densitometry; 200 μg His-MtlR, 200 μg HPr; 20 mM Tris-HCl (pH 7.5), 50 mM NaCl, 2 mM β-mercaptoethanol, 5% glycerol; wash 10 mM imidazole, elution 150 mM imidazole
The figure you give is taken to be in %; do not add the unit.

Supply recorded percent of parent for chain 1 L112W here.
95

Supply recorded percent of parent for chain 1 A115W here.
45

Supply recorded percent of parent for chain 1 L112A here.
47

Supply recorded percent of parent for chain 1 E140S here.
67

Supply recorded percent of parent for chain 1 E108S here.
76
